B1: TPR 5TU (parent)
chain: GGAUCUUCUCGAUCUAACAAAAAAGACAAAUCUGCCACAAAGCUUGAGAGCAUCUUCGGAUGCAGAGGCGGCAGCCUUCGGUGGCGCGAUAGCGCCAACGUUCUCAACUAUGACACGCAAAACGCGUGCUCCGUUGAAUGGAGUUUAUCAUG

Variants of: B1
Test: polymerase ribozyme fitness, log enrichment relative to wild type (log ratio); higher = more active; in vitro selection for triplet polymerase activity
Variants at the floor of the assay were thinned out.
property.name: polymerase ribozyme fitness (log ratio)
// return just the number, without any unit appended

Fill in: polymerase ribozyme fitness (log ratio) of U13C G94C U104G is ___
-2.15

Another variant to look at: U7A C18U
-3.45

Now try C18G G25C U33C C108G .
-3.95

Further cases:
Suppose we examine the variant A121C C123A U127C ; what polymerase ribozyme fitness (log ratio) value has been reported?
-1.91
